Consider the following compounds; for each one, report its log10 of IC50.
TARGET_OR_TEST_SYSTEM: Cav1.2 L-type Ca channels (Oryctolagus cuniculus, UniProt P15381)
Sequence (P15381 whole entry): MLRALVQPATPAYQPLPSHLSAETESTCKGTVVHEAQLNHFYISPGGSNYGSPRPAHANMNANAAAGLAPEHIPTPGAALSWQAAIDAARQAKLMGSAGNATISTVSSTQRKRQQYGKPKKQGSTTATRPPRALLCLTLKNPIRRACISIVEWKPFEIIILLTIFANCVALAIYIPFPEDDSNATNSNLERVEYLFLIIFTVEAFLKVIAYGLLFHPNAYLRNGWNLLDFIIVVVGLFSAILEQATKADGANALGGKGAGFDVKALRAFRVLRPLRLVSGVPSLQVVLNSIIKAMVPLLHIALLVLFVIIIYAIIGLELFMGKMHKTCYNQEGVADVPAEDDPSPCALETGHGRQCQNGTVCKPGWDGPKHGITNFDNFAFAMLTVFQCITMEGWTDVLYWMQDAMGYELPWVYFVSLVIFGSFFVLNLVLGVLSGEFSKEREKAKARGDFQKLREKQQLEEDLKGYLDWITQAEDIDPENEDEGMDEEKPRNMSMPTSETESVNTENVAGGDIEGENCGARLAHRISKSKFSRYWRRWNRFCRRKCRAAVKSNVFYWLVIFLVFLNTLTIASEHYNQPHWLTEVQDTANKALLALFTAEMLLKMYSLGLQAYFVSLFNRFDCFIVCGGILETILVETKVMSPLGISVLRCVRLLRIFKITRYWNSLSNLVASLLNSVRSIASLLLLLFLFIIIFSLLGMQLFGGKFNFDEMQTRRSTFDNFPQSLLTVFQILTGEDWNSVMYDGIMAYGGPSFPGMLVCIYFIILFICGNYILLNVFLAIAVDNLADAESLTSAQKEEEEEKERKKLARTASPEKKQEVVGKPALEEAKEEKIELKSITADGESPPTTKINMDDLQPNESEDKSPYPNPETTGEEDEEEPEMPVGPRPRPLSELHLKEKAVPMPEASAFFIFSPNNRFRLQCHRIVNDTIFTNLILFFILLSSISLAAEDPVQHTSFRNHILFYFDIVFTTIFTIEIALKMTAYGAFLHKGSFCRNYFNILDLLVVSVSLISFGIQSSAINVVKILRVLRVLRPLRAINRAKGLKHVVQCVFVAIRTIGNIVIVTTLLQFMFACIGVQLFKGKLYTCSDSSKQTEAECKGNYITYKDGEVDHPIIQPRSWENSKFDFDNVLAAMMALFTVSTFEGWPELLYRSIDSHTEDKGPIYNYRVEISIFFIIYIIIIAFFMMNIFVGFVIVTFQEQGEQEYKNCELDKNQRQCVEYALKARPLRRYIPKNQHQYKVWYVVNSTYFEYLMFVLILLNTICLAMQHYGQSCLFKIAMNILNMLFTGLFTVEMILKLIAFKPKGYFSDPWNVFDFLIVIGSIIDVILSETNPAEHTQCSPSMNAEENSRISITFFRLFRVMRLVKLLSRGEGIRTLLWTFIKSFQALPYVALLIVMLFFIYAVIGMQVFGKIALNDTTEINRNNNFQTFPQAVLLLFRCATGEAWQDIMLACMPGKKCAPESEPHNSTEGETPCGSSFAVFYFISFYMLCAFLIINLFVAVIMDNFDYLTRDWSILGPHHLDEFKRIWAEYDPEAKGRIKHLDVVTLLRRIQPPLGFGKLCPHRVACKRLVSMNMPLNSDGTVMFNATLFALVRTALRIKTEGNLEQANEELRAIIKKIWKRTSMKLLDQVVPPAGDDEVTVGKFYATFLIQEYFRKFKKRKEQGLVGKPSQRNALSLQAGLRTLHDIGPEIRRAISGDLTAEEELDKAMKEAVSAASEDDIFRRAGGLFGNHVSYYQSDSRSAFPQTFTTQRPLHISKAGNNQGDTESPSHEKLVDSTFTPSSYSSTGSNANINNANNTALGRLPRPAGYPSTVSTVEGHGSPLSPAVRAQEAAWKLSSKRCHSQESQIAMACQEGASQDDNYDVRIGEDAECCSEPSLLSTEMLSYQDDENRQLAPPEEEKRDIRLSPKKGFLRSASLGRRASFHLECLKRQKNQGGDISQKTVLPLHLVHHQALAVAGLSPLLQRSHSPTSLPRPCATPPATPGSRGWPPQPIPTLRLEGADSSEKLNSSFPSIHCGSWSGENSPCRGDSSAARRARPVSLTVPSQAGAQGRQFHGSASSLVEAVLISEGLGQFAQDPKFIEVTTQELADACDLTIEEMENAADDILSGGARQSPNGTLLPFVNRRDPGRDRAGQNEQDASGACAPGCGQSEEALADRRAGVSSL
Sequence (P54284 whole entry partner): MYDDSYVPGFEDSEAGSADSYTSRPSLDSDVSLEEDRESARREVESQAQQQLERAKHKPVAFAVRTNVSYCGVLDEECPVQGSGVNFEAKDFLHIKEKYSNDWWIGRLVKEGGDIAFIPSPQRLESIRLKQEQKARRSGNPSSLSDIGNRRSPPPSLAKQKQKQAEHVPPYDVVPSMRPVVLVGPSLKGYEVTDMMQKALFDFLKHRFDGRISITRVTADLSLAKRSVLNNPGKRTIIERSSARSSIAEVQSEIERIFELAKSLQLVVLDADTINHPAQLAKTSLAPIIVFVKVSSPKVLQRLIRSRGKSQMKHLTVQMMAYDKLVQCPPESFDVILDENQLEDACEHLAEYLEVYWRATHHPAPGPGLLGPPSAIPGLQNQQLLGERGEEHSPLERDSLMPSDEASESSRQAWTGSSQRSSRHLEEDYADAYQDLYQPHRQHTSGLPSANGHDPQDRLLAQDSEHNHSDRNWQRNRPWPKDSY
Sequence (P54289 25-956 partner limits assumed): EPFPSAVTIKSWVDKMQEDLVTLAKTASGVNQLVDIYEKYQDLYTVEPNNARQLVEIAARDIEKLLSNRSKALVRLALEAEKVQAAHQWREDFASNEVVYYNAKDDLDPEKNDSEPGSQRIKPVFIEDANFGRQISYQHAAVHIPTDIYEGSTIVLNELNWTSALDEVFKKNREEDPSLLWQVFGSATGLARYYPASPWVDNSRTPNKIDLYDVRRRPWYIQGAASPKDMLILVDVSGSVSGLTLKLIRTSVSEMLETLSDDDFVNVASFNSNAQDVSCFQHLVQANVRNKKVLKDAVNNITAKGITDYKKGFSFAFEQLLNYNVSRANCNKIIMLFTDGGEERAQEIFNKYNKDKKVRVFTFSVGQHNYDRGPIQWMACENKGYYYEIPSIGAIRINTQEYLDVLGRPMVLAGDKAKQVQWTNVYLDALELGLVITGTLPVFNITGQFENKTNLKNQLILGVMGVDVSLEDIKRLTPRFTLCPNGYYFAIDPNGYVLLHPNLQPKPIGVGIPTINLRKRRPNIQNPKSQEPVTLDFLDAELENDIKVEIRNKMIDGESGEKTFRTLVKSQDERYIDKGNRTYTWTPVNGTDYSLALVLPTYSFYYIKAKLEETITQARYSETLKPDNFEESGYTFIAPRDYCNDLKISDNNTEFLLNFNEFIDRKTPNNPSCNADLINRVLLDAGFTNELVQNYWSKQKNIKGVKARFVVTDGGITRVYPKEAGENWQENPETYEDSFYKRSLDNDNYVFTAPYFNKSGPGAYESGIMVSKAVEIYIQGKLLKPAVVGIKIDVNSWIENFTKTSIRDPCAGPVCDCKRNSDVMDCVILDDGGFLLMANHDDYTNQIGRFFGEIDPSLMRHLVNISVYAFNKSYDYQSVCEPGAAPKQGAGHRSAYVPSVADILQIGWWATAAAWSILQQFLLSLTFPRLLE
Sequence (P54289 957-1103 partner limits assumed): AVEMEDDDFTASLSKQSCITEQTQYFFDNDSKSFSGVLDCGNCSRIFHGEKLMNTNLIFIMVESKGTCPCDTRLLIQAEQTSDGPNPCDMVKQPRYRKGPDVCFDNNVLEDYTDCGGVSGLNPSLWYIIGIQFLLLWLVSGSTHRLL
TEST_NAME: FLIPR Fluo-8 calcium assay, Cav1.2 channel inhibition in HEK293 cells
MEASUREMENT_CONTEXT: IC50 (μM) CaV1.2, first library; FLIPR, HEK293; value (±SD)
Each number you see is log10 of IC50, and the unit inside the log is µM.

# log10 of IC50 measured on Cav1.2 L-type Ca channels (Oryctolagus cuniculus, UniProt P15381) for item `O=C1CC(=O)N(CCc2ccc3ccccc3c2)C(=O)N1CCc1ccc(Cl)c(Cl)c1` = 0.58

Short answer on Cav1.2 L-type Ca channels (Oryctolagus cuniculus, UniProt P15381) for `O=C1CC(=O)N(C2Cc3ccccc3C2)C(=O)N1CCc1ccc(Cl)cc1` , log10 of IC50: 0.48

Form field, log10 of IC50 with Cav1.2 L-type Ca channels (Oryctolagus cuniculus, UniProt P15381), item `O=C1CC(=O)N(CCc2ccc3ccccc3c2)C(=O)N1CCCCc1ccccc1` : 0.40

log10 of IC50 for Cav1.2 L-type Ca channels (Oryctolagus cuniculus, UniProt P15381) with input `O=C1CC(=O)N(CCc2ccc(Br)cc2)C(=O)N1CCc1ccc(Cl)cc1` equals 0.32

The value of log10 of IC50 recorded for O=C1CC(=O)N(C2CCCc3ccccc32)C(=O)N1CCc1ccc(Cl)cc1 (stereo not drawn) when tested on Cav1.2 L-type Ca channels (Oryctolagus cuniculus, UniProt P15381) reads 1.11

Item: `O=C1CC(=O)N(Cc2ccc(Cl)cc2)C(=O)N1CCc1ccc(Cl)cc1` | System: Cav1.2 L-type Ca channels (Oryctolagus cuniculus, UniProt P15381) | log10 of IC50: 0.28

Entry `O=C1CC(=O)N(CCc2cccc(C(F)(F)F)c2)C(=O)N1CCc1ccc(Cl)cc1` ; assay system Cav1.2 L-type Ca channels (Oryctolagus cuniculus, UniProt P15381); log10 of IC50 recorded at 0.45

// returns log10 of IC50 for `O=C1CC(=O)N(C2CCCCC2)C(=O)N1CCc1cccc(Cl)c1` with Cav1.2 L-type Ca channels (Oryctolagus cuniculus, UniProt P15381); value = 1.73

Record `O=C1CC(=O)N(C2CCCC2)C(=O)N1CCCCc1ccccc1` has Cav1.2 L-type Ca channels (Oryctolagus cuniculus, UniProt P15381) log10 of IC50 equal to 1.64

====

TARGET_OR_TEST_SYSTEM: Cav1.3 L-type Ca channels (Rattus norvegicus, UniProt P27732)
Construct: expressed in transfected cells; host or cells: HEK293
TEST_NAME: FLIPR Fluo-8 calcium assay, Cav1.3 channel inhibition in HEK293 cells
Format: cell-based
MEASUREMENT_CONTEXT: IC50 (μM) CaV1.3, first library; FLIPR, HEK293; value (±SD)
REPORTED_METRIC: IC50 (µM)
Numeric answer only, unit µM assumed.

IC50 value, target or system Cav1.3 L-type Ca channels (Rattus norvegicus, UniProt P27732), for O=C1CC(=O)N(CCc2ccc3ccccc3c2)C(=O)N1CCc1ccc(Cl)c(Cl)c1 [Compound 63] : 4

The compound O=C1CC(=O)N(CCc2cccc(Cl)c2)C(=O)N1CCCCc1ccccc1 [Compound 38] , when measured on Cav1.3 L-type Ca channels (Rattus norvegicus, UniProt P27732), yielded IC50 of 1.3

Summary line: O=C1CC(=O)N(C2CCCc3ccccc32)C(=O)N1CCc1ccc(Cl)cc1 (centres unmarked) [Compound 30] , Cav1.3 L-type Ca channels (Rattus norvegicus, UniProt P27732), reported IC50 = 5.6

I looked up Cc1ccc(CCN2C(=O)CC(=O)N(CCCCc3ccccc3)C2=O)cc1 [Compound 41] and its IC50 for Cav1.3 L-type Ca channels (Rattus norvegicus, UniProt P27732) was 1.1

IC50 value, target or system Cav1.3 L-type Ca channels (Rattus norvegicus, UniProt P27732), for O=C1CC(=O)N(CCc2cccc([N+](=O)[O-])c2)C(=O)N1CCc1ccc(Cl)cc1 [Compound 24] : 2.7

Reported IC50 (Cav1.3 L-type Ca channels (Rattus norvegicus, UniProt P27732)) for entry O=C1CC(=O)N(CCc2ccc(Cl)c(Cl)c2)C(=O)N1CCCc1ccccc1 [Compound 54] is 4.3

Value sought: IC50, system Cav1.3 L-type Ca channels (Rattus norvegicus, UniProt P27732), item O=C1CC(=O)N(C2Cc3ccccc3C2)C(=O)N1CCc1ccc(Cl)cc1 [Compound 31] . Result: 1.3

Cav1.3 L-type Ca channels (Rattus norvegicus, UniProt P27732) data for O=C1CC(=O)N(CCc2ccc3ccccc3c2)C(=O)N1CCCc1ccccc1 [Compound 61] ; its IC50: 1

====

TARGET_OR_TEST_SYSTEM: Cav1.2 L-type Ca channels (Oryctolagus cuniculus, UniProt P15381)
TEST_NAME: FLIPR Fluo-8 calcium assay, Cav1.2 channel inhibition in HEK293 cells
MEASUREMENT_CONTEXT: IC50 (μM) CaV1.2, first library; FLIPR, HEK293; value (±SD)
Assignment: determine reported IC50 for the given compounds.
Could you kindly put the unit after your number?

Value of measured IC50 for the entry `CCCCCCCCN1C(=O)CC(=O)N(CCc2ccc3ccccc3c2)C1=O` : 8.9 µM

// `Cc1ccc(CCN2C(=O)CC(=O)N(CCCCc3ccccc3)C2=O)cc1` : IC50 value = 15.5 µM

The compound identified as `O=C1CC(=O)N(CCc2ccc(Br)cc2)C(=O)N1CCCCc1ccccc1` registered its IC50 at 2 µM

Sure, the documented IC50 for `CCCCCCCCN1C(=O)CC(=O)N(CCCc2ccccc2)C1=O` is 2.6 µM

Reported IC50 for `O=C1CC(=O)N(CCc2c(Cl)cccc2Cl)C(=O)N1CCc1ccc(Cl)cc1` was 1.9 µM

Record `COC(=O)[C@H](CC(C)C)N1C(=O)CC(=O)N(CCc2ccc(Cl)cc2)C1=O` . Reported IC50: 17.1 µM

Reported IC50 for `O=C1CC(=O)N(C2CCCC2)C(=O)N1CCc1ccc(Cl)cc1` was 22.4 µM

Quick note, IC50 for `O=C1CC(=O)N(Cc2cccc([N+](=O)[O-])c2)C(=O)N1CCCc1ccccc1` landed at 13 µM

Data point: `O=C1CC(=O)N(C2CCCCC2)C(=O)N1CCc1ccc(F)cc1` ; IC50 = 166 µM

The reported IC50 of the compound `O=C1CC(=O)N(CCc2cccc([N+](=O)[O-])c2)C(=O)N1CCc1ccc(Cl)cc1` was 2.6 µM

IC50 measured on `O=C1CC(=O)N(CCc2ccc(Cl)c(Cl)c2)C(=O)N1CCc1ccc(Cl)cc1` = 1.3 µM

// recorded IC50 for `O=C1CC(=O)N(CCc2ccc3ccccc3c2)C(=O)N1CCCc1ccccc1` : 1.2 µM

For this compound ( `O=C1CC(=O)N(CCc2cccc(F)c2)C(=O)N1CCc1ccc(Cl)cc1` ), measured IC50 is 2.8 µM

The recorded IC50 for entry `Cc1ccc(CCN2C(=O)CC(=O)N(CCc3ccc(Cl)cc3)C2=O)cc1` equals 7.1 µM

`O=C1CC(=O)N(CCc2cccc([N+](=O)[O-])c2)C(=O)N1CCCc1ccccc1` yielded IC50 of 9.5 µM

// field: IC50; key: `O=C1CC(=O)N(Cc2ccc(Cl)cc2)C(=O)N1CCCCc1ccccc1` ; value = 7.7 µM

The compound listed as `O=C1CC(=O)N(CCc2ccc(Cl)cc2)C(=O)N1CCc1ccc(Cl)cc1` has a reported IC50 of 2.1 µM

Input O=C1CC(=O)N(C2CCc3ccccc32)C(=O)N1CCc1ccc(Cl)cc1 (stereo not drawn) . Output IC50: 14.5 µM

====

TARGET_OR_TEST_SYSTEM: Cav1.2 (α1C) L-type calcium channel (Oryctolagus cuniculus)
Construct: expressed in transfected cells; host or cells: HEK-293, stably transfected
TEST_NAME: Whole-cell voltage-clamp recordings, Cav1.2 LTCC in HEK293 cells
Assay type: cell-based, rabbit
MEASUREMENT_CONTEXT: rabbit, pH 7.4; 5 μM, whole-cell voltage clamp; read-out: inhibition of Cav1.2 channels
REPORTED_METRIC: inhibition at 5 µM (%)
Kindly provide the numeric value in % only, without the unit symbol.

Quick note, inhibition at 5 µM for O=C1CC(=O)N(C2CCCC2)C(=O)N1CCc1cccc(Cl)c1 [Compound 8] landed at 3.8

====

TARGET_OR_TEST_SYSTEM: Cav1.2 L-type Ca channels (Oryctolagus cuniculus, UniProt P15381)
TEST_NAME: FLIPR Fluo-8 calcium assay, Cav1.2 channel inhibition in HEK293 cells
MEASUREMENT_CONTEXT: IC50 (μM) CaV1.2, first library; FLIPR, HEK293; value (±SD)
Kindly supply the reported IC50 values for the records listed here.

The reported IC50 of the molecule O=C1CC(=O)N(C2CCCc3ccccc32)C(=O)N1CCCCc1ccccc1 (stereo not shown) was 34.1 µM

// sample `O=C1CC(=O)N(CCc2ccc(Cl)cc2)C(=O)N1CCCCc1ccccc1` , its IC50 was 0.8 µM

# IC50 of O=C1CC(=O)N(C2CCc3ccccc32)C(=O)N1CCCCc1ccccc1 (stereo not shown) = 5.7 µM

The molecule listed as `O=C1CC(=O)N(CCc2cccc(F)c2)C(=O)N1CCCc1ccccc1` has a reported IC50 of 2.5 µM

Where do the numbers come from? From patent US20210186970A1.
